Numbers sourced from patent US20240287079A1.

molecular target: NLRP3 inflammasome (Homo sapiens (Human), UniProt Q96P20); experiment: Evaluation of NLRP3 inflammasome inhibitory activity (inhibition of IL-1β production in LPS/Nigericin-stimulated THP1-Null cells); details: IL-1β production in THP1-Null cells, PMA, LPS 1 μg/mL, Nigericin 7.5 μmol/L, AlphaLISA
Sequence (Q96P20 whole entry): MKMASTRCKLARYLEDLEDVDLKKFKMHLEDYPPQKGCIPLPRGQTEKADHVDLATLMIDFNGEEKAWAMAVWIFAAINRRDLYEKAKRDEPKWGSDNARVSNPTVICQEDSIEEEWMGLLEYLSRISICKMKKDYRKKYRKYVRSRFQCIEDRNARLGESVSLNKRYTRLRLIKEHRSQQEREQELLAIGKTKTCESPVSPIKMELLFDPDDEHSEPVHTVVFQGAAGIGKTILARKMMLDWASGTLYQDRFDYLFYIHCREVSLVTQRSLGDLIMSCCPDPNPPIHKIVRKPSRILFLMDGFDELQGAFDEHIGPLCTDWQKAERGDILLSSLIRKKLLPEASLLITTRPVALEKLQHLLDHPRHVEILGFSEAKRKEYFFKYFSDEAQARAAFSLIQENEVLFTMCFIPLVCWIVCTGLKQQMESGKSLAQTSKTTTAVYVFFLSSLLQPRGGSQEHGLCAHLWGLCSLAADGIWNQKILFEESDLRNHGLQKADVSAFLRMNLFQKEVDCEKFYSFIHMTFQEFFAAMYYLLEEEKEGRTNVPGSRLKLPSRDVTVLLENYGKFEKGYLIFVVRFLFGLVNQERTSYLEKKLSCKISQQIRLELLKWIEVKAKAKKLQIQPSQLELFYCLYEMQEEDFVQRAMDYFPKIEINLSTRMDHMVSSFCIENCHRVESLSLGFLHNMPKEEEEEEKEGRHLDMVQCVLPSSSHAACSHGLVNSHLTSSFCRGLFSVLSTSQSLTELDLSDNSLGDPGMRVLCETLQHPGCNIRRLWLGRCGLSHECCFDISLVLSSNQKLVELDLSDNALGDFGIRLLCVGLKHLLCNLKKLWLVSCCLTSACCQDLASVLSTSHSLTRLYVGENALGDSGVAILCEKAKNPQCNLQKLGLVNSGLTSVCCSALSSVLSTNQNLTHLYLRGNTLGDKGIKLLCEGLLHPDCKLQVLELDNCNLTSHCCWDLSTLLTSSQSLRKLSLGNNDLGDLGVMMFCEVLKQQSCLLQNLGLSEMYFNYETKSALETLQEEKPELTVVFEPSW
Could you mark each record Fulfilled if its IC50 falls strictly under 0.04 µM, and Not fulfilled if it equals or exceeds it?

Answered cases to consult:
compound="CC(=O)N1CC2CN(c3nc4nn(-c5ccc(C(F)(F)F)cc5Cl)cc4c(=O)[nH]3)CC2C1 (centres unmarked)" answer_label=Fulfilled
compound=Cc1cc(C2CC2)ncc1-n1cc2c(=O)[nH]c(N3CCOCC3)nc2n1 answer_label="Not fulfilled"
compound=Cc1cc(Br)cc(C)c1-n1cc2c(=O)[nH]c(N3CC(F)C3)nc2n1 answer_label=Fulfilled
compound=COc1ccccc1CN(C)c1nc2nn(-c3ccccc3C)cc2c(=O)[nH]1 answer_label="Not fulfilled"
compound=O=c1[nH]c(N2CCOCC2)nc2nn(-c3c(F)cc(C(F)(F)F)cc3Cl)cc12 answer_label=Fulfilled

Q) Does O=c1[nH]c(N2CCCC2CO)nc2nn(-c3ccc(C(F)(F)F)cc3Cl)cc12 (racemic) have IC50 strictly under 0.04 µM?
A) Fulfilled

Q) Strictly below 0.04 µM: is that where IC50 of `O=c1[nH]c(N2CCCC2)nc2nn(-c3ccc(Cl)cc3F)cc12` sits?
A) Fulfilled

Q) API: query returns whether the compound falls strictly under 0.04 µM in IC50. Query: `Cc1cc(C2CCC2)cc(C)c1-n1cc2c(=O)[nH]c(N3CCOCC3)nc2n1`
A) Not fulfilled
